Assay target: T1, DVL3, Q92997
T1 sequence (Q92997 244-331, limits assumed, looked up): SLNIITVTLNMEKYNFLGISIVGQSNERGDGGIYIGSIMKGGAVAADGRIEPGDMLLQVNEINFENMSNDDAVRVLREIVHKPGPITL
Experimental protocol: holdup assay
Design: key: below the threshold = too weak to quantify, mostly under pKd 3.1 to 4
Conditions used: plain residues with an end cap or a label only (N-terminal biotin on a linker: ado-ado)
Reported property: pKd

QRYPGNQTTC [CCL24, O00175]: below the threshold
KKTPVSRSHL [SLC22A3, O75751]: below the threshold
TKDKVQETQI [LRRC4, Q9HBW1]: below the threshold
IGHEDLETAV [DGKI, O75912]: below the threshold
KAEEKPPSKV [SCN4B, Q8IWT1]: below the threshold

Incoming: Given the binder FHSIKQSTAV [CRHR1, P34998] , what is its reported pKd?
Outgoing: below the threshold

Incoming: Request: NTALVESEDL [PALLS, Q8WX93;Q8WX93-1]
Outgoing: below the threshold

Incoming: Another binder: RSPVATATSC [DUSP5, Q16690]
Outgoing: below the threshold

Incoming: Next up: YAEKRMLTEV [KCNA6, P17658]
Outgoing: below the threshold

Incoming: One more binder: LLQEEWETVM [PTH1R, Q03431]
Outgoing: below the threshold

Incoming: Same question, PDSYHRRDFW [U2AF2, P26368] this time
Outgoing: below the threshold

Incoming: Now the same for PSDSVGKDVF [EGLN1, Q9GZT9]
Outgoing: below the threshold

Incoming: Would you mind doing EFKQTSSFLV [JAM1, Q9Y624] as well?
Outgoing: below the threshold

Ref: paper PMC9482650
